Source: ChEMBL document CHEMBL4477234

Biological target: P2X purinoceptor 7 (Homo sapiens, UniProt Q99572)
Test: Antagonist activity at human P2X7 receptor in LPS/IFN-gamma-differentiated human THP-1 cells assessed as suppression of BzATP-stimulated IL-1beta release per-incubated for 30 mins before BzATP addition and measured after 30 mins by ELISA
Type: cell-based
Could you please report measured IC50 for the items listed next?
One number for each entry, in nM.

These solved cases illustrate the format of a correct answer.
COc1ccc(C(=O)N2CCC(n3cncc3-c3ccc(OS(=O)(=O)c4cccc5cnccc45)cc3)CC2)cc1 : 64
CNC(=O)c1cccc(S(=O)(=O)Oc2ccc(-c3cncn3C3CCN(C(=O)c4ccc(Cl)c(C(F)(F)F)c4)CC3)cc2)c1 : 1.76
CC(C)c1ccc(C(=O)N2CCC(n3cncc3-c3ccc(OS(=O)(=O)c4cccc5cnccc45)cc3)CC2)cc1 : 37
CN(C)c1ccc(C(=O)N2CCC(n3cncc3-c3ccc(OS(=O)(=O)c4cccc5cnccc45)cc3)CC2)cc1 : 2.19
CN(C)c1ccc(C(=O)N2CCC(c3nc4cc(OS(=O)(=O)c5cccc6cnccc56)ccc4[nH]3)CC2)cc1 : 121
N#Cc1cccc(S(=O)(=O)Oc2ccc(-c3cncn3C3CCN(C(=O)c4ccc([N+](=O)[O-])cc4)CC3)cc2)c1 : 13

Request: IC50 of "CN(C)c1ccc(C(=O)N2CCN(c3cc(=O)[nH]c(=O)n3Cc3ccc(OS(=O)(=O)c4cccc5cnccc45)cc3)CC2)cc1" on P2X purinoceptor 7 (Homo sapiens, UniProt Q99572)?
Result: 1.33

---

Target: P2X purinoceptor 3 (Homo sapiens)
Sequence (P56373 whole entry): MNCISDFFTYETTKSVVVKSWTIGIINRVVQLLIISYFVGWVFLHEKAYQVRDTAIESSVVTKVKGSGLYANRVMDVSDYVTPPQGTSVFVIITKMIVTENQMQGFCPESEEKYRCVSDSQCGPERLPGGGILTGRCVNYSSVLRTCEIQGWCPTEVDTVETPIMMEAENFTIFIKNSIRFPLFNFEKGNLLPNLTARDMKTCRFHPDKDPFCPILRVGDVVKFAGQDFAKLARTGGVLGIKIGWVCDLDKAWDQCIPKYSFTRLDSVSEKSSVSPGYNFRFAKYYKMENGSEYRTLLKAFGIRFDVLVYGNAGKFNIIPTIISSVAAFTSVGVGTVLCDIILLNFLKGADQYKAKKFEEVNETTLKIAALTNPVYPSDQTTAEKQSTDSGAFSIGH
Assay: Antagonist activity at human P2X3 receptor expressed in human 1321N1 cells assessed as inhibition of ATP-induced calcium influx preincubated for 30 mins prior to ATP-stimulation by calcium influx assay
pIC50: −log10 of the molar value.
Parameter threshold = 6. Response is 1 (yes) when pIC50 meets or exceeds it, else 0 (no).

O=C(Nc1cc(C(=O)Nc2ccc(S(=O)(=O)O)cc2)cc(C(=O)Nc2ccc(S(=O)(=O)O)cc2)c1)Nc1cc(C(=O)Nc2ccc(S(=O)(=O)O)cc2)cc(C(=O)Nc2ccc(S(=O)(=O)O)cc2)c1 : 0 (no)

Request: Does the compound O=C1NC(=O)N(C2CCN(C(=O)c3ccc(Cl)c(C(F)(F)F)c3)CC2)C1Cc1ccc(OS(=O)(=O)c2cccc3cnccc23)cc1 (stereo not given) have recorded pIC50 that is 6 or more?
Result: 1 (yes)

Request: Does the compound "CN(C)c1ccc(C(=O)N2CCN(c3cc(=O)[nH]c(=O)n3Cc3ccc(OS(=O)(=O)c4cccc5cnccc45)cc3)CC2)cc1" have recorded pIC50 that is 6 or more?
Result: 0 (no)

---

Biological target: P2X purinoceptor 7 (Homo sapiens, UniProt Q99572)
Sequence (Q99572 whole entry): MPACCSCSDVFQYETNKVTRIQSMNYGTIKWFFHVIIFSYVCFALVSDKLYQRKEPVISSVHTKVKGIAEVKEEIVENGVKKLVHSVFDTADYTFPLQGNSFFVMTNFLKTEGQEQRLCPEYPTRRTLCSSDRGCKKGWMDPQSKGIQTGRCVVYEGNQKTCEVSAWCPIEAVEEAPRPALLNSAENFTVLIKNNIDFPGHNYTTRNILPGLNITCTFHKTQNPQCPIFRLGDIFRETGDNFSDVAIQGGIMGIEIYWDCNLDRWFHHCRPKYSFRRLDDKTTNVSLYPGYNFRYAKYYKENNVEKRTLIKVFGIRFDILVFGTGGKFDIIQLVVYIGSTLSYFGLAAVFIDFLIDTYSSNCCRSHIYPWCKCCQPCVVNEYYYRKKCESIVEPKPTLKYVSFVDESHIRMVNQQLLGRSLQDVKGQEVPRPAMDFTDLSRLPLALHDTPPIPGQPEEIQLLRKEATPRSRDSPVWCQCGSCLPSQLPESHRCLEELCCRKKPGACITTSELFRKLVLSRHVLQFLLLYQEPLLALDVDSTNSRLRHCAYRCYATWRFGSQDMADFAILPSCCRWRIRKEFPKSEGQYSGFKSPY
Assay: Antagonist activity at human P2X7 receptor
PROPERTY_NAME: IC50 (nM)
Give bare numbers, in nM.

Request: What does the record list as IC50 for COc1ccc(CC(=O)NC(N/C(=N/C#N)Nc2cccc3ncccc23)C(C)(C)C)cc1OC (configuration not stated) ?
Result: 90

---

Biological target: P2X purinoceptor 7 (Homo sapiens, UniProt Q99572)
Assay: Antagonist activity at human P2X7 receptor in LPS/IFN-gamma-differentiated human THP-1 cells assessed as suppression of BzATP-stimulated IL-1beta release per-incubated for 30 mins before BzATP addition and measured after 30 mins by ELISA
Format: cell-based
Could you please report measured IC50 for the items listed next?
Answers are plain numbers, in nM.

These solved cases illustrate the format of a correct answer.
O=C(NCC12CC3CC(CC(C3)C1)C2)c1cc(CCCNCCCO)ccc1Cl : 0.06
O=C(c1ccc(Cl)c(C(F)(F)F)c1)N1CCC(n2ccc3cc(OS(=O)(=O)c4cccc5cnccc45)ccc32)CC1 : 552
CN(C)c1ccc(C(=O)N2CCC(n3cncc3-c3ccc(OS(=O)(=O)c4cccc(C(=O)NC5CC5)c4)cc3)CC2)cc1 : 1.03
CNC(=O)c1cccc(S(=O)(=O)Oc2ccc(-c3cncn3C3CCN(C(=O)c4ccc(N(C)C)cc4)CC3)cc2)c1 : 22

API: the following record is the query input.
Request: What does the record list as IC50 for "O=C(c1ccc([N+](=O)[O-])cc1)N1CCC(c2nc3cc(OS(=O)(=O)c4cccc5cnccc45)ccc3[nH]2)CC1" ?
Result: 17

---

Test system: MDA-MB-231
Assay: Antimigratory activity against human MDA-MB-231 cells xenografted in zebrafish assessed as inhibition of cell dissemination and invasion at 10 uM measured after 4 days by fluorescence microscopic analysis relative to control
Format: functional, cell-based
Calls of active or inactive are those of the source. No cut-off for these calls is given here.
Bench note: report the call from active, inactive

Solved cases (4 shown):
CS(=O)(=O)c1ccc(C(=O)N2CCC(c3nc4cc(OS(=O)(=O)c5cccc6cnccc56)ccc4[nH]3)CC2)cc1 : inactive
O=C(NCC12CC3CC(CC(C3)C1)C2)c1cc(CCCNCCCO)ccc1Cl : active
CN(C)c1ccc(C(=O)N2CCC(n3cncc3-c3ccc(OS(=O)(=O)c4cccc5cnccc45)cc3)CC2)cc1 : active
CN(C)c1ccc(C(=O)N2CCN(c3cc(=O)[nH]c(=O)n3Cc3ccc(OS(=O)(=O)c4cccc5cnccc45)cc3)CC2)cc1 : active

Request: How did this test come out for "CN(C)c1ccc(C(=O)N2CCC(n3cncc3-c3ccc(OS(=O)(=O)c4cccc(C(=O)NC5CC5)c4)cc3)CC2)cc1" ?
Result: active

---

Could you please report measured inhibition for the items listed next?
Biological target: P2X purinoceptor 1 (Homo sapiens)
Assay: Antagonist activity at human P2X1 receptor expressed in human 1321N1 cells assessed as inhibition of ATP-induced calcium influx at 1 uM preincubated for 30 mins prior to ATP-stimulation by calcium influx assay
Assay type: cell-based
Numbers only, in %.

CN(C)c1ccc(C(=O)N2CCC(n3cncc3-c3ccc(OS(=O)(=O)c4cccc5cnccc45)cc3)CC2)cc1 : 26
O=C1NC(=O)N(C2CCN(C(=O)c3ccc(Cl)c(C(F)(F)F)c3)CC2)C1Cc1ccc(OS(=O)(=O)c2cccc3cnccc23)cc1 (stereo not given) : 28
CN(C)c1ccc(C(=O)N2CCN(c3cc(=O)[nH]c(=O)n3Cc3ccc(OS(=O)(=O)c4cccc5cnccc45)cc3)CC2)cc1 : 23

# batch: return inhibition for each of the 2 compounds below
1. CN(C)c1ccc(C(=O)N2CCC(n3cncc3-c3ccc(OS(=O)(=O)c4cccc(C(=O)NC5CC5)c4)cc3)CC2)cc1
2. CS(=O)(=O)c1ccc(C(=O)N2CCC(c3nc4cc(OS(=O)(=O)c5cccc6cnccc56)ccc4[nH]3)CC2)cc1

Result:
1: 22; 2: 16

---

Biological target: P2X purinoceptor 7 (Homo sapiens)
Test: Antagonist activity at human P2X7 receptor expressed in HEK293 cells assessed as inhibition of BzATP-induced EtBr uptake measured after 2 hrs by fluorescence analysis
Assay type: cell-based
Could you please report measured pIC50 for the items listed next?
One number for each entry, as −log10 of the molar value.

These solved cases illustrate the format of a correct answer.
O=C(c1ccc(Oc2ccccc2)cc1)N1CCC(n2cncc2-c2ccc(OS(=O)(=O)c3cccc4cnccc34)cc2)CC1 : 6.73
CS(=O)(=O)c1ccc(C(=O)N2CCC(n3cncc3-c3ccc(OS(=O)(=O)c4cccc5cnccc45)cc3)CC2)cc1 : 7.60
O=C(NC1CC1)c1cccc(S(=O)(=O)Oc2ccc(-c3cncn3C3CCN(C(=O)c4ccc(Cl)c(C(F)(F)F)c4)CC3)cc2)c1 : 7.06
CS(=O)(=O)Oc1ccc(-c2cncn2C2CCN(C(=O)c3ccc(Cl)c(C(F)(F)F)c3)CC2)cc1 : 5.80
CS(=O)(=O)c1ccc(C(=O)N2CCC(n3cncc3-c3ccc(OS(=O)(=O)c4cccc(C(=O)NC5CC5)c4)cc3)CC2)cc1 : 6.40

# batch: return pIC50 for each of the 4 compounds below
1. O=C(c1ccc(Cl)c(C(F)(F)F)c1)N1CCN(c2cc(=O)[nH]c(=O)n2Cc2ccc(OS(=O)(=O)c3cccc4cnccc34)cc2)CC1
2. N#Cc1cccc(S(=O)(=O)Oc2ccc(-c3cncn3C3CCN(C(=O)c4ccc(Cl)c(C(F)(F)F)c4)CC3)cc2)c1
3. CN(C)c1ccc(C(=O)N2CCC(n3cncc3-c3ccc(OS(=O)(=O)c4cccc(C(=O)NC5CC5)c4)cc3)CC2)cc1
4. CNC(=O)c1cccc(S(=O)(=O)Oc2ccc(-c3cncn3C3CCN(C(=O)c4ccc(OC)cc4)CC3)cc2)c1

Result:
1. 7.40
2. 7.14
3. 9.31
4. 6.80

# batch: return pIC50 for each of the 6 compounds below
1. N#Cc1ccc(C(=O)N2CCC(n3cncc3-c3ccc(OS(=O)(=O)c4cccc5cnccc45)cc3)CC2)cc1
2. O=C(c1ccc(Cl)c(C(F)(F)F)c1)N1CCC(n2cncc2-c2ccc(OS(=O)(=O)c3ccccc3)cc2)CC1
3. CN(C)c1ccc(C(=O)N2CCN(c3cc(=O)[nH]c(=O)n3Cc3ccc(OS(=O)(=O)c4cccc5cnccc45)cc3)CC2)cc1
4. O=C(c1ccc(Cl)c(C(F)(F)F)c1)N1CCC(n2cncc2-c2ccc(OS(=O)(=O)c3cccc([N+](=O)[O-])c3)cc2)CC1
5. COc1ccc(C(=O)N2CCC(n3cncc3-c3ccc(OS(=O)(=O)c4cccc5cnccc45)cc3)CC2)cc1OC
6. O=C(NC1CC1)c1cccc(S(=O)(=O)Oc2ccc(-c3cncn3C3CCN(C(=O)c4ccc([N+](=O)[O-])cc4)CC3)cc2)c1

Result:
1. 6.57
2. 6.15
3. 8.82
4. 6.60
5. 6.59
6. 6.82

# batch: return pIC50 for each of the 4 compounds below
1. O=C(c1ccc(Cl)c(C(F)(F)F)c1)N1CCC(n2cncc2-c2ccc(OS(=O)(=O)c3cccc(Br)c3)cc2)CC1
2. O=C(c1ccc(Cl)c(C(F)(F)F)c1)N1CCC(n2ccc3cc(OS(=O)(=O)c4cccc5cnccc45)ccc32)CC1
3. Nc1cccc(S(=O)(=O)Oc2ccc(-c3cncn3C3CCN(C(=O)c4ccc(Cl)c(C(F)(F)F)c4)CC3)cc2)c1
4. CNC(=O)c1cccc(S(=O)(=O)Oc2ccc(-c3cncn3C3CCN(C(=O)c4ccc(N(C)C)cc4)CC3)cc2)c1

Result:
[6.05, 6.37, 6.25, 7.60]

# batch: return pIC50 for each of the 2 compounds below
1. CS(=O)(=O)c1ccc(C(=O)N2CCC(c3nc4cc(OS(=O)(=O)c5cccc6cnccc56)ccc4[nH]3)CC2)cc1
2. CN(C)c1ccc(C(=O)N2CCC(n3cncc3-c3ccc(OS(=O)(=O)c4cccc(C#N)c4)cc3)CC2)cc1

Result:
1. 8.15
2. 7.49

# batch: return pIC50 for each of the 6 compounds below
1. O=C(c1ccc([N+](=O)[O-])cc1)N1CCC(c2nc3cc(OS(=O)(=O)c4cccc5cnccc45)ccc3[nH]2)CC1
2. O=C(c1ccc(Cl)c(C(F)(F)F)c1)N1CCC(n2cncc2-c2ccc(OS(=O)(=O)c3cccc4cnccc34)cc2)CC1
3. CNC(=O)c1cccc(S(=O)(=O)Oc2ccc(-c3cncn3C3CCN(C(=O)c4ccc(Cl)c(C(F)(F)F)c4)CC3)cc2)c1
4. COc1ccc(C(=O)N2CCC(n3cncc3-c3ccc(OS(=O)(=O)c4cccc(C#N)c4)cc3)CC2)cc1
5. O=C(c1ccc(Cl)c(C(F)(F)F)c1)N1CCC(c2nc3cc(OS(=O)(=O)c4cccc5cnccc45)ccc3[nH]2)CC1
6. CN(C)c1cccc(C(=O)N2CCC(n3cncc3-c3ccc(OS(=O)(=O)c4cccc5cnccc45)cc3)CC2)c1

Result:
1: 7.89; 2: 7.35; 3: 6.95; 4: 6.51; 5: 7.51; 6: 6.81

# batch: return pIC50 for each of the 2 compounds below
1. CN(C)c1ccc(C(=O)N2CCC(c3nc4cc(OS(=O)(=O)c5cccc6cnccc56)ccc4[nH]3)CC2)cc1
2. CCN(CC)C(=O)c1cccc(S(=O)(=O)Oc2ccc(-c3cncn3C3CCN(C(=O)c4ccc(Cl)c(C(F)(F)F)c4)CC3)cc2)c1

Result:
[7.39, 6.69]
